The reported measurements were obtained from the supplement of paper PMC9732359.

Listed next: entries and their corresponding protein stability index.
- experimentalDetails: protein stability index of a GFP-peptide fusion (yeast GPS) (PSI 1-4); higher = more stable; sorted into four equal gates, so the index is relative within each strain
- protocolConditions: doa10∆
A bare number is all that is needed in reply.

{"recordSequence": "GSKISSNDLDKFFQKKI [YGL172W/NUP49]", "endpointValue": 1.72}
{"recordSequence": "RNVEQKLNELDELILEA [NNF1]", "endpointValue": 3.3}
{"recordSequence": "ALNMLPSEILHLILDKL [GRR1]", "endpointValue": 2.37}
{"recordSequence": "MINDENYIINDIKKNNK [SRB8]", "endpointValue": 3.15}
{"recordSequence": "FLKYYGAHKFLDTYLPE [SIR2]", "endpointValue": 1.66}
{"recordSequence": "RDREPKEPVALIETVRQ [RPN2]", "endpointValue": 3.32}

In the following, a different sequence is considered.
Quick one: give measured protein stability index for LNSLKDERSQGEKNFTS [SMC4]
3.41

====

- experimentalDetails: protein stability index of a GFP-peptide fusion (yeast GPS) (PSI 1-4); higher = more stable; sorted into four equal gates, so the index is relative within each strain
- protocolConditions: san1∆
Listing of entries alongside the reported protein stability index.

Example sequences with recorded protein stability index:
{"recordSequence": "FLNEARDKAGRLAEVNL [RPO21]", "protein stability index": 2.06}
{"recordSequence": "KEIRAFDKLLNIPRREL [SRB4]", "protein stability index": 2.73}
{"recordSequence": "DDEKNDKQARKQRTKKE [SNF2]", "protein stability index": 3.06}
{"recordSequence": "FITNVQSISQNSSSSTP [SWI1]", "protein stability index": 2.43}
{"recordSequence": "AGGPDMTTPQNISSSQQ [DSN1]", "protein stability index": 2.83}

State, in one line, measured protein stability index of NQVGTDELILPLPSHAL [YDL116W/NUP84]
2.83

Given the sequence LVQQIQKETQKVTKIWS [PRP28] , write its reported protein stability index.
2.52

====

- experimentalDetails: protein stability index of a GFP-peptide fusion (yeast GPS) (PSI 1-4); higher = more stable; sorted into four equal gates, so the index is relative within each strain
- protocolConditions: san1∆
outcomeMeasure: protein stability index

Some entries whose results are on file:
{"recordSequence": "GQRPDRATTYEKLTMVF [SIN4]", "protein stability index": 1.53}
{"recordSequence": "DNSFNELTDNMSDFVPI [MCD1]", "protein stability index": 2.92}
{"recordSequence": "ELNSSEDILEDMNSNLQ [SMC1]", "protein stability index": 3.24}
{"recordSequence": "YPFLLSFLGEAKSMAFL [YML103C/NUP188]", "protein stability index": 2.29}
{"recordSequence": "GPEITPEEATTIFSVMV [PRP8]", "protein stability index": 1.77}
{"recordSequence": "TDPKELYNNAHVYARDL [RPC40]", "protein stability index": 2.93}

Answer with reported protein stability index of KLLAKELEEQESESERK [SMC2]
2.46

// Input: FTPKLIYDFITLFSSIE [ECM29] . Output its protein stability index only.
2.17

Respond only with protein stability index recorded for AEEAIVNAMRVLYYRDA [PRE4]
2.73

Specify reported protein stability index for the sequence shown: PVDITMMENYQNISPVY [PRP8]
2.2

====

Measured protein stability index of individual entries
- experimentalDetails: protein stability index of a GFP-peptide fusion (yeast GPS) (PSI 1-4); higher = more stable; sorted into four equal gates, so the index is relative within each strain
- protocolConditions: ubr1∆
Form rule: numeric answer, no unit written next to it.

For orientation, consider the following solved cases.
{"recordSequence": "SQLNIQLSQDEHSQVEQ [SRP72]", "protein stability index": 3.05}
{"recordSequence": "LKLSQAFGSSATDISGE [YJR042W/NUP85]", "protein stability index": 2.14}
{"recordSequence": "DDEKNDKQARKQRTKKE [SNF2]", "protein stability index": 3.18}
{"recordSequence": "DEDKNFPRSRSRSRSSI [ESC2]", "protein stability index": 3.27}
{"recordSequence": "GAVGLKDLTLCRYSCLA [YCS4]", "protein stability index": 2.13}

Given the sequence DDDERVEYNLFTNRSTM [BRN1] , write its reported protein stability index.
3.1

Please give measured protein stability index of the following entry: RHHRKTEKEEDAELMAD [ISW2]
3.32

====

- experimentalDetails: protein stability index of a GFP-peptide fusion (yeast GPS) (PSI 1-4); higher = more stable; sorted into four equal gates, so the index is relative within each strain
- protocolConditions: pdr5∆
Label condition met when protein stability index is at or above 3; anything below gets condition not met.

Would you please look over these solved cases?
{"recordSequence": "RPHQSRESLIMLLEEQL [MED7]", "labelClass": "condition not met"}
{"recordSequence": "TQAAEFLSPYISTHLKT [IRR1]", "labelClass": "condition not met"}
{"recordSequence": "EGKSVDELITEGNEKLA [RPP2A]", "labelClass": "condition met"}
{"recordSequence": "ALQKGLKDLMDLCDVVE [RPC19]", "labelClass": "condition not met"}
{"recordSequence": "SSKKVFSSNLSYANHLE [YOR098C/NUP1]", "labelClass": "condition not met"}

Given NTLLISGPFKVNGVPLR [RPL6A] , state whether its protein stability index is at least 3.
condition not met

Hello, I need to know if DKKSCSVDDVLSALDHI [DPB4] has measured protein stability index not below 3. Thanks!
condition met

Test whether the sequence PIKNRTSKSFSKLLYDD [SIN4] records protein stability index of 3 or higher.
condition not met

Has RSLLQEAIETCKNFEKT [GAL11] a recorded protein stability index greater than or equal to 3?
condition met

Hi, just wondering whether LNLSLHKLDLAKRNLDA [SMC2] shows protein stability index of 3 or higher.
condition not met

Please indicate if the recorded protein stability index for TLIVNTDVEKSDPAAKK [SRP21] meets or exceeds 3.
condition met

Reported protein stability index at or above 3? KKQVHVYRFVTENAIEE [ISW2]
condition not met

Does protein stability index meet or surpass 3 for KWEQTYKKPTGGIVTVR [FAS1] ?
condition not met

====

- experimentalDetails: protein stability index of a GFP-peptide fusion (yeast GPS) (PSI 1-4); higher = more stable; sorted into four equal gates, so the index is relative within each strain
- protocolConditions: san1∆
// reported protein stability index for each item listed
Lab note: jot the number down without any unit.

Worked set:
{"recordSequence": "SALWSSRKGIAFGLGAI [ECM29]", "endpointValue": 2.2}
{"recordSequence": "SGNNYNDINISSIENNI [MED2]", "endpointValue": 2.89}
{"recordSequence": "YNVCDTSKSLVKRYRLA [SIN4]", "endpointValue": 2.58}
{"recordSequence": "YLIVAGVDPTGSHLFSI [PUP1]", "endpointValue": 1.94}
{"recordSequence": "VKKPQKSKTSTGKERSK [SNM1]", "endpointValue": 3.55}
{"recordSequence": "NLGSRTKNNTQASGITA [SSN3]", "endpointValue": 2.18}

Read off the recorded protein stability index for RKHKRVSPNAAPRQEIS [YAR002W/NUP60]
2.92

====

- experimentalDetails: protein stability index of a GFP-peptide fusion (yeast GPS) (PSI 1-4); higher = more stable; sorted into four equal gates, so the index is relative within each strain
- protocolConditions: pdr5∆
outcomeMeasure: protein stability index
Answer with the value's number alone.

Consider the following illustrative entries.
{"recordSequence": "RALKVRNAQAQREAAAE [RPS6A]", "protein stability index": 2.98}
{"recordSequence": "AEDVALNEQVKKFFLNN [NAS6]", "protein stability index": 2.18}
{"recordSequence": "QDDEYVKDWLYDSRPLE [PRP8]", "protein stability index": 3.43}
{"recordSequence": "SVVAKQLLNGQKIVVVR [RPL16A]", "protein stability index": 1.36}
{"recordSequence": "ILDFGPGGASGLGVLTH [FAS1]", "protein stability index": 2.74}
{"recordSequence": "ESILQMNQGEGEPEAGN [RPC34]", "protein stability index": 3.18}

Consider the additional sequence presented here.
Give recorded protein stability index. RVHRLLRRGNYAQRIGS [HTA1]
2.77

====

- experimentalDetails: protein stability index of a GFP-peptide fusion (yeast GPS) (PSI 1-4); higher = more stable; sorted into four equal gates, so the index is relative within each strain
- protocolConditions: ubr1∆
Quick list: protein stability index per entry.
Answer with a number only.

{"recordSequence": "SEPIDLIIIEKKQKLIE [ITC1]", "protein stability index": 2.69}
{"recordSequence": "HIKKLLHQYYGDDESKI [FAS1]", "protein stability index": 3}
{"recordSequence": "ARVSPRNNVANKQPRNE [YAR002W/NUP60]", "protein stability index": 3.65}
{"recordSequence": "HPLHELIIQYPPNNARR [ISW2]", "protein stability index": 3}
{"recordSequence": "QLAPSSVDPQSSSTQNV [DIS3]", "protein stability index": 2.63}
{"recordSequence": "PTPSVKTEPVGTGLQSY [RPC53]", "protein stability index": 3.25}

In the following, a different sequence is considered.
Output measured protein stability index for this item: LKFFLVDENETVLESLG [LIN1]
3.04
